method.notes: Bioavailability test
Format: in vivo, SD rats
test.conditions: SD, rat, in vivo, iv
observable: half-life (h)
// return numeric value only (unit: h, not printed)

Study these solved cases before continuing.
[2H]C1([2H])Sc2ccccc2[C@@H](N2[C@@H]3COCCN3C(=O)c3c(O)c(=O)ccn32)c2ccc(F)c(F)c21: 5
[2H]C1([2H])Sc2ccccc2[C@]([2H])(N2[C@@H]3COCCN3C(=O)c3c(O)c(=O)ccn32)c2ccc(F)c(F)c21: 5.2
[2H][C@]1(N2[C@@H]3COCCN3C(=O)c3c(O)c(=O)ccn32)c2ccccc2SCc2c1ccc(F)c2F: 4

# evaluate next
Look at this compound and give its reported half-life. O=C1c2c(O)c(=O)ccn2N([C@@H]2c3ccccc3SCc3c2ccc(F)c3F)[C@@H]2COCCN12 [S-033188A, reference compound]
3.8

----------
Listed compounds paired with reported ED50
Tested on: A/WS/33, A/Victoria/3/75 or B/Maryland/1/59
Assay type: in vivo, BALB/cAnNCrlCrlj mice
test.conditions: single oral administration, 50% lethal suppression, 14 days after infection
// return numeric value only (unit: mg/kg/day, not printed)

COC(=O)OCOc1c2n(ccc1=O)N([C@@H]1c3ccccc3SCc3c1ccc(F)c3F)[C@@H]1COCCN1C2=O [S-033188B, reference compound]: 0.78
[2H]C1([2H])Sc2ccccc2[C@]([2H])(N2[C@@H]3COCCN3C(=O)c3c(OCOC(=O)OC)c(=O)ccn32)c2ccc(F)c(F)c21 [3B]: 0.33
[2H][C@]1(N2[C@@H]3COCCN3C(=O)c3c(OCOC(=O)OC)c(=O)ccn32)c2ccccc2SCc2c1ccc(F)c2F [1B]: 0.41

Look at this compound and give its reported ED50. [2H]C1([2H])Sc2ccccc2[C@@H](N2[C@@H]3COCCN3C(=O)c3c(OCOC(=O)OC)c(=O)ccn32)c2ccc(F)c(F)c21 [2B]
0.71
